- System: HIV
- ASSAY_SUMMARY: MT4 assay: antiviral HIV activity (cell protection, cell titer glo readout at 96 hours)
- Assay type: cell-based
- STUDY_CONDITIONS: Human immunodeficiency virus 1, MT4, 96 h, MT4 cells, cell titer glo readout at 96 hours, 10 point dose response; read-out: HIV MT4 Assay IC50
OUTCOME_MEASURE: IC50 (nM)

COMPOUND	READOUT_UNIT	READOUT_VALUE
Cc1nc2c(cc(C(=O)NCCOc3ccccc3)n2C)c(-c2cc(F)c3c(c2C)CCCO3)c1[C@H](OC(C)(C)C)C(=O)O [Example 213]	nM	3.9
CCO[C@H](C(=O)O)c1c(C)nc2c(cc(-c3nnc(-c4ccc5c(cnn5C)c4)o3)n2C)c1-c1cc(F)c2c(c1C)CCCO2 [Example 439]	nM	3
Cc1nc2c(cc(-c3ccnc(N4CCCN(C5COC5)CC4)c3)n2C)c(-c2ccccc2)c1[C@H](OC(C)(C)C)C(=O)O [Example 435]	nM	3010
Cc1nc2c(cc(-c3ccc4c(c3)CCN(C)C4=O)n2C)c(-c2cc(F)c3c(c2C)CCCO3)c1[C@H](OC(C)(C)C)C(=O)O (atropisomer, axis not shown) [Example 137]	nM	43.8
Cc1nc2c(cc(-c3ccnc(-c4ccc5c(cnn5C)c4)c3)n2C)c(-c2ccccc2)c1[C@H](OC(C)(C)C)C(=O)O [Example 424]	nM	46.4
Cc1nc2c(cc(C(=O)NCCCN(C)C)n2C)c(-c2cc(F)c3c(c2C)CCCO3)c1[C@H](OC(C)(C)C)C(=O)O [Example 247]	nM	18100
Cc1nc2c(cc(-c3nnc(N4CCCCC4)o3)n2C)c(-c2cc(F)c3c(c2C)CCCO3)c1[C@H](OC(C)(C)C)C(=O)O [Example 345]	nM	2.7
COc1ccc(CNC(=O)c2cc3c(-c4cc(F)c5c(c4C)CCCO5)c([C@H](OC(C)(C)C)C(=O)O)c(C)nc3n2C)cc1 [Example 233]	nM	3.6

I = Cc1nc2c(cc(C(=O)N[C@H](C)c3ccccc3)n2C)c(-c2cc(F)c3c(c2C)CCCO3)c1[C@H](OC(C)(C)C)C(=O)O [Example 190]
II = Cc1nc2c(cc(-c3ccnc(CN(C)c4ccccn4)c3)n2C)c(-c2cc(F)c3c(c2C)CCCO3)c1[C@H](OC(C)(C)C)C(=O)O [Example 77]
Problem: Which record would sort first by descending IC50, I or II ? Let me know the label of the one you choose.
Result: II
(II: 41 nM, I: 14.1 nM)

Ref: patent US20150191469A1
